Assay Info: protease stability score; higher = more stable; yeast display proteolysis, trypsin and chymotrypsin
Measurement Kind: protease stability score
Kindly provide the number alone.

{"Entry Sequence": "SEDEELAKRIAKLWIELHLTGNEDTIKQLMDPRVLVRIHINGVDIHLHGREHVIRHHRETMKHLGWSKVHLELKDSKFIGEYLHMDVRMNVNGQEHHVELEIIVINGRMKEIRINIE", "Reported Result": 2.02}
{"Entry Sequence": "DESRESLEEALKIYIHDIKTGDEKSLTELADPNARLNFNGRWHHGREMVTKWMSEMRLHDFKLHELDVQGDKVHIRGEIFFEIDGRVIRSEIHIVMIKINGRWLLHSMHVE", "Reported Result": 1.17}
{"Entry Sequence": "DEDEEQLHEMVRIFLENMQTGNFEALLNYMDPNAKRRDVQGDKDITYIGREQAKEHDEKLDRHLGVKHFEIKRITIQGEKADIDTRLLFNGQLRDVRIHIIIVNGKLSYLEVQID", "Reported Result": 0.897}
{"Entry Sequence": "DEERKLATELFKWLIDLYLTGDEETFEKLADPHYLSDVNGRNIHGMELISHIWREEIEKYGWEIHIKIRHIELQGDKSKSETEIHNNYDGRRIVFETRIIVRIVNGRIKSIEVRFR", "Reported Result": 1.28}
{"Entry Sequence": "DEKEEFTRRFAQILIELWKTGDEEDMNNNMDPDVQNHSEFNGREVHLIGMELYVEHSEQWLNRVKNARIIWRHVDAQGDKILIHGDLIVNGKRIHVELDFYIVNGRIKSITIHER", "Reported Result": 2.02}

Now look at this one.
Q: Can you look up the measured protease stability score of DDHHELLKRMMDIIKEQFLTGDWEEHRRMADPHVKVIINGVQLIGWEHIRRFEEEMRRQWRIHHVEDKDERYFEGRAHVHSEIDGEFDGKREIHHSVIHLHVVNGRLKRLELRFE for me?
A: 1.28

###

Assay Info: protease stability score; higher = more stable; yeast display proteolysis, trypsin and chymotrypsin;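 note: relative to predicted unfolded state with 0 unfolded-like and 1 meaning tenfold more protease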
Measurement Kind: protease stability score
Kindly provide the number alone.

{"Entry Sequence": "SEEEKEAKDALEKLWHYWHTGDEHELVRLADPTMRHIINGRHFHGREFFSELLRRLGFKHIIYHFEDMDVQGDKVHIHGHIESEFDGRRHHMNTHLIILKVNGKWIYESIKFD", "Measurement Kind": "protease stability score", "Reported Result": 1.32}

Q: Can you look up the measured protease stability score of HDEDEESRNAVEEYWRVLHTGDEKRWHELADPNVRNEIDGRTYHGRESFRFLFHLHEEKFKNVKIELHSVNIQGDKIKMLIEIKYGDKNIHMIIIAQKIDGKWKNERIHVFHH for me?
A: 0.744

Q: Can you look up the measured protease stability score of SEDDQLVRELMRRIMKNIMTGDEEKHLNLVDPHARTIFDGREYHGRELYTMVFRILYNRIDHWTDLKVEHVSIYDGVIEIHVRADVDINGKRTEITMIIFVNKVNGRWIIEYVVYS for me?
A: 1.37

###

Assay Info: protease stability score; higher = more stable; yeast display proteolysis, trypsin and chymotrypsin;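 note: relative to predicted unfolded state with 0 unfolded-like and 1 meaning tenfold more protease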
In this section, each of the sequences is paired with its reported protease stability score.
Kindly provide the number alone.

{"Entry Sequence": "SEIQHELSEMMKIVIHQFLTGDEEEFRHLVDPNVKFIFNGRLLIGWKSLSDFLKEHLERVDHWHVEIKRVRVYDGRLDISGRLRLVQGDKEHNLDVRMHLETIDGKITSVEIRVH", "Reported Result": 1.28}
{"Entry Sequence": "DEDDEHSEEIAKMWMHLVHTGDFDSETKLVDPHVKFKIDGREIIGREVFMQLMIELRHILRDSKIDDLNRQGEFLHVHGQVHGELIIGDKNFEINHKVEFIIIKVNGRWFAHTIIFR", "Reported Result": 1.64}

Q: Can you look up the measured protease stability score of DEQEESSRIIHKLIEHVAETGDWREWRKLLDPNTRLDVNGKEFHGWEKLLEHLEEHLDLLGVTKFTLRIQIRSMETQGNYVFIVGITHIHQGDKEIHRFTELIVLKINGKWLMKEIRFR for me?
A: 1.37

###

Assay Info: protease stability score; higher = more stable; yeast display proteolysis, trypsin and chymotrypsin;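 note: relative to predicted unfolded state with 0 unfolded-like and 1 meaning tenfold more protease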
In this section, each of the sequences is paired with its reported protease stability score.

{"Entry Sequence": "DDEERHASTIFELLMEVILTGDEDTFEELADPNTRFDINGREFHGREYMSHLKTQYDHWYLKHMHITSSEVQGNFAILNSETDYELEYGDKRVSFYERWHLFVLKVDGRWIIHSFRIN", "protease stability score": 0.985}

Q: Can you look up the measured protease stability score of DDEERLIKHLAERWMKDLHTGNEDSLEEMADPNWRLRQIVNGQEVRDIGREKMIEVIREIEKKLGIDRIELHVHKVEIQGDKAHLNTEIRYNGQSSLHEIRLTIINGRLHSVTIHVK for me?
A: 0.85

Q: Can you look up the measured protease stability score of REEDKEFEDAVKTILHSFLTGDFDLLIKLLDPNVRIRFENVDLVGWSEYLRRLEEFGVKVHRTKRSDIRYINGVAVVIIDGEMEYGDKKTKVELNFVMQKYDGRWRTQSIHEKEH for me?
A: 1.12

###

Assay Info: protease stability score; higher = more stable; yeast display proteolysis, trypsin and chymotrypsin;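 note: relative to predicted unfolded state with 0 unfolded-like and 1 meaning tenfold more protease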
Measurement Kind: protease stability score
Kindly provide the number alone.

Record excerpt, results attached:
{"Entry Sequence": "SETDESSRVASELMREWLETGDEEVISELADPHVRFDWNGRRDIGRHSYLEFMHMLRRHMGIKHIEFKRIEVHVINGVVHVNITGILHFNGVQLTTHIHIHAEKIDGRWILKQSHYDTE", "Measurement Kind": "protease stability score", "Reported Result": 0.751}
{"Entry Sequence": "DEEDEYYNMALEHFVKTILTGNWKRFKKLADPHVRMEIDGREHHGREEATKVFNRFDHIKNFDFRDIELQGEKIEVHGELHGTINGKDVHTSFHIIMYKVNGKWEEKEVKFQ", "Measurement Kind": "protease stability score", "Reported Result": 1.28}
{"Entry Sequence": "DEEEETMERALRETLHFINTGDEDSMEELMDPNWRIHIDGKDLHGWKFFQHLLRRADHIHIHIELKDVRRVGDKLELDGRLHVIYFIDGQEIHKVVDTHIYMIKINGRWHHKFIEIK", "Measurement Kind": "protease stability score", "Reported Result": 2.15}
{"Entry Sequence": "DEEDEHLHQFLEDFKHNLKTGNFEAISKNADPHVRVIFNGRRFHGMENVKRLWEELGVDHVRIDHFELIDGRIDLNTTIEQGDKHRRTRLHILIVNGRIKSIHIHFE", "Measurement Kind": "protease stability score", "Reported Result": 1.16}
{"Entry Sequence": "DEKEKLKQLARKFHKAMQTGDEDELKKNVDENVRADYGDRRYHGSEELAKWLREMKTKVDHLSMTIKDIRVKGDRAEIELEMTFDHNGRQETRQFTLQAQVHNGSLKIVQIRQS", "Measurement Kind": "protease stability score", "Reported Result": 1.47}
{"Entry Sequence": "DEEKKLAHKIARILMDLFLTGNEEVWKELMDPHVKFEIGDFIDHGWEAVKRYYEVLGFDHIQETDLESIVIFENHVILHIRIHGEVNGRQVDTTVTLFIEKINGKWYIRTIRIH", "Measurement Kind": "protease stability score", "Reported Result": 2.5}
{"Entry Sequence": "TEEHEKSEIAVELIIRTLVTGDEELMNKLIDPHVRIEFENRELVGRETYTKIYSRELRELGWEFVTTELRHIETQGEKVELQGDLVINGKRIKVHLYFHKYNGVWFLKRVHYE", "Measurement Kind": "protease stability score", "Reported Result": 1.19}
{"Entry Sequence": "DHEEKAKKFFDDLLRAVKHNDETQLERLFDKNVRFNVGEHNFRGREEFVKMVRTMVEQVDHVTATIVSIETNGDKVNLVAQWDMSHNGNSKRIRVLVVLDDNNGRVVAREMSEK", "Measurement Kind": "protease stability score", "Reported Result": 1.98}
{"Entry Sequence": "DERMEVIEELLKKISHALYTGNEKLLEQMADPNVRLEIGDKEFVGWEQLLELIREIRLSITDIDIRDERLIGNKIHLRGESRTIHVIGDKTWEERRDVHFVILKIDGKWVMHEIEYR", "Measurement Kind": "protease stability score", "Reported Result": 1.95}
{"Entry Sequence": "SEDEEMVEKAHQIEKESLETGDEKMILDLLDPNVRIRVDGVDFHGWEHAEKLLRELRIERVNLRSFTWQGDFLRLDGELTFDYNGKKIRTKVRIYADKVDGRWFHKSHEVT", "Measurement Kind": "protease stability score", "Reported Result": 1.1}

Now look at this one.
Q: Can you look up the measured protease stability score of DHHEKHLKHIFHLYIRAWITGNEKEMQDLADPNVRMHVGDKHVHGREEVRRLHHHLLTHIRLDHFHIDDHRVYDGVVEVKGIEDHNVNGQRHRFESTWIIVIVNGRIEEIEIRVH for me?
A: 1.16
